Sourced from the COVID Moonshot data (paper PMC7615835)

# Experimental Target: SARS-CoV-2 Main Protease (SARS-CoV-2)
pIC50: −log10 of the molar value.
Parameter threshold = 5. Response is criterion met when pIC50 meets or exceeds it, else criterion not met.

Please review the following examples before continuing.
Input: Does the compound O=C(NC1(C(=O)Nc2cncc3ccccc23)CCOc2ccc(Cl)cc21)C1CCC(C(=O)N2CCCC2)O1 (configuration not stated) have recorded pIC50 that is 5 or more?
Output: criterion met

Input: Does the compound O=C(Cc1cc(Cl)cc(N2CCc3c([nH]c4ccccc34)C2)c1)Nc1cncc2ccccc12 have recorded pIC50 that is 5 or more?
Output: criterion met

New cases:
Input: Does the compound O=C(Cn1cn[nH]c1=O)NC1CCCCCC1c1ccccc1C(F)(F)F (configuration not stated) have recorded pIC50 that is 5 or more?
Output: criterion not met

Input: Does the compound Cc1nc(N2CCN(S(=O)(=O)c3ccccc3)CC2)sc1S(N)(=O)=O have recorded pIC50 that is 5 or more?
Output: criterion not met

Input: Does the compound COc1cccc2ncc(NC(=O)Cc3cccc(Cl)c3)n12 have recorded pIC50 that is 5 or more?
Output: criterion not met

Input: Does the compound O=C(Cc1cccc(Cl)c1)Nc1[nH]nc2cccc(F)c12 have recorded pIC50 that is 5 or more?
Output: criterion not met

Input: Does the compound Cn1ncc2c(NC(=O)Cc3cccc(Cl)c3)cncc21 have recorded pIC50 that is 5 or more?
Output: criterion not met
